From: patent US20210277118A1

target: T1, human CD3 expressed on T cells (Jurkat cells, human pan T cells/PBMC) (human, UniProt P07766 23-207); assay: flow cytometry on human T cells
T1 construct: whole, on cells; On T cells CD3 epsilon stands in the CD3 complex with the gamma, delta and zeta chains and the T-cell receptor; only the epsilon chain is written out; also called CD3+ Jurkat cells; human T cells
T1 sequence (P07766 23-207): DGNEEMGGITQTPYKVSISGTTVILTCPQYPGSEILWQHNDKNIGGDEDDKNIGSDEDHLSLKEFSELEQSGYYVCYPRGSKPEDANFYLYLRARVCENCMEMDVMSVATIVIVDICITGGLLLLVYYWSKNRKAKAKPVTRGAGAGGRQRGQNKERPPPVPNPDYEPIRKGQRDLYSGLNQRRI
Recorded Endpoint: EC50 (nM)

- variant 21827, monovalent anti-CD3 scFv-heterodimeric Fc (VL hC3E-1_1L1d, VH hC3E-1(N53S_D102E)) (Fc fusion, scFv order VH-(GGGGS)3-VL on Fc chain A; chain B is Fc only; also called v21827; not shown: Fc-only chain B is also left out) scFv: EVQLVESGGGLVQPGGSLRLSCAASGVTFNYYGMSWIRQAPGKGLEWVASITSSGGRIYYPDSVKGRFTISRENTQKTLYLQMNSLRAEDTAVYYCTLDGREGWVAYWGQGTLVTVSSGGGGSGGGGSGGGGSQVVLTQPPSASGTPGQRVTISCKRNTGNIGSNYVNWYQQLPGTAPKLLIYRDDKRPDGVPDRFSGSKSGTSASLAISGLQSEDEADYYCQSYSSGFIFGGGTKLTVL: 1.9
